The origin of these recorded values is PubChem BioAssay AID256.

For each entry below, report its T/C value.
Test system: CD2F1 mice, L1210 leukemia ip, survival T/C
assay details: NCI In Vivo Anticancer Drug Screen. Data for tumor model L1210 Leukemia (intraperitoneal) in CD2F1 (CDF1) mice
run parameters: endpoint: mean survival time; dose: 12.5 mg/kg/injection; schedule: Q01DX005 (ip); vehicle: distilled water + Tween-80; higher = longer survival
Toxic doses and inconclusive results are not listed.

Problem: // lookup T/C for O=c1[nH]cnc2c1nc(NCc1ccccc1)n2C1OC(CO)C(O)C1O (stereo unspecified)
Solution: 98 % of control

Problem: // lookup T/C for O=C(O)CCCCCSc1nn(C2OC(CO)C(O)C2O)c(=O)[nH]c1=O (stereo unspecified)
Solution: 112 % of control

Problem: // lookup T/C for CC(=O)NC1=CC(OC(C)=O)C(COC(C)=O)OC1n1cnc2c1c(=O)n(C)c(=O)n2C (stereo unspecified)
Solution: 93 % of control

Problem: // lookup T/C for Nc1nc(=Nc2ccccc2)n(C2OCC(O)C(O)C2O)c2ccccc12 (stereo unspecified)
Solution: 94 % of control

Problem: // lookup T/C for Nc1nc2c(nc(NCc3ccccc3)n2C2OC(CO)C(O)C2O)c(=O)[nH]1 (stereo unspecified)
Solution: 95 % of control

Problem: // lookup T/C for O=c1n(C2OC(CO)C(O)C2O)ccc2nnnn12 (stereo unspecified)
Solution: 100 % of control

----------
System: CD2F1 mice, L1210 leukemia ip, survival T/C
assay details: NCI In Vivo Anticancer Drug Screen. Data for tumor model L1210 Leukemia (intraperitoneal) in CD2F1 (CDF1) mice
run parameters: endpoint: mean survival time; dose: 400.0 mg/kg/injection; schedule: Q04DX003 (ip); vehicle: saline with Tween-80; higher = longer survival
Toxic doses and inconclusive results are not listed.
reported property: T/C

Problem: Give recorded T/C with CD2F1 mice, L1210 leukemia ip, survival T/C for the following compound: `O=S(=O)(F)c1ccc2nc(-c3cccc(Sc4ccccc4)c3)cc(Cl)c2c1`
Solution: 96 % of control

Problem: Give recorded T/C with CD2F1 mice, L1210 leukemia ip, survival T/C for the following compound: `Cc1cc(C)c(NC(=O)CC#N)cc1C`
Solution: 93 % of control

Problem: Give recorded T/C with CD2F1 mice, L1210 leukemia ip, survival T/C for the following compound: `O=C(COc1ccccc1)Nc1ccc([N+](=O)[O-])cc1`
Solution: 100 % of control

Problem: Give recorded T/C with CD2F1 mice, L1210 leukemia ip, survival T/C for the following compound: `COc1ccc(C(=O)CC(=O)Nc2ccc([N+](=O)[O-])cc2)cc1`
Solution: 101 % of control

Problem: Give recorded T/C with CD2F1 mice, L1210 leukemia ip, survival T/C for the following compound: `COc1cc2c(cc1OC)C(Cc1ccc3cc(OC)c(OC)cc3c1)=NCC2`
Solution: 101 % of control

Problem: Give recorded T/C with CD2F1 mice, L1210 leukemia ip, survival T/C for the following compound: `COc1ccccc1NC(C)=O`
Solution: 101 % of control

----------
System: CD2F1 mice, L1210 leukemia ip, survival T/C
assay details: NCI In Vivo Anticancer Drug Screen. Data for tumor model L1210 Leukemia (intraperitoneal) in CD2F1 (CDF1) mice
run parameters: endpoint: mean survival time; dose: 200.0 mg/kg/injection; schedule: Q01DX001 (ip); vehicle: saline
Inconclusive results and toxic doses are left out. The calls were made as follows: active = survival T/C of 150% or more; inactive = T/C below 125% in these data.
The reply should name one outcome from y = active, n = inactive

Problem: Lab log entry: `O=Cc1c2ccccc2cc2ccccc12` — outcome as called in the assay?
Solution: y

Problem: Lab log entry: `COc1cc2c(cc1OC)C(Cc1ccccc1[N+](=O)[O-])=NCC2` — outcome as called in the assay?
Solution: n

Problem: Lab log entry: OC1CNCc2cc3c(cc21)OCO3 (configuration not stated) — outcome as called in the assay?
Solution: n

Problem: Lab log entry: CCOC(=O)CCC(N)C(=O)OCC (configuration not stated) — outcome as called in the assay?
Solution: n

Problem: Lab log entry: `CCCCOCCSc1ccccc1` — outcome as called in the assay?
Solution: n

Problem: Lab log entry: O=C(O)C1C2c3ccccc3C(C1C(=O)O)[n+]1ccccc12 (configuration not stated) — outcome as called in the assay?
Solution: n

Problem: Lab log entry: `CC(=O)c1cc(-c2ccc(Cl)cc2)nc2c(Cl)cc(Cl)cc12` — outcome as called in the assay?
Solution: n
